Entries and their MIC
Test system: Cryptococcus neoformans
Experiment: Antifungal activity against Cryptococcus neoformans H99 assessed as decrease in cell viability by measuring metabolic activity incubated for 72 hrs by alamar blue staining based broth dilution method
Assay type: functional
Give the quantity in µM, number only.

Example entries and their recorded answers appear below.
compound	unit symbol	recorded value
CCCC[C@H]1CN(c2ccccc2)C(=O)CN1Cc1cncn1Cc1ccc(Br)cc1	µM	50
CCCC[C@H]1CN(c2cccc(Cl)c2)C(=O)CN1Cc1cncn1Cc1ccc(Br)cc1	µM	12

For reference, reported MIC for CCCC[C@H]1CN(c2cccc(OC(F)(F)F)c2)C(=O)CN1Cc1cncn1Cc1ccc(C(F)(F)F)cc1 stands at 6

For reference, reported MIC for N#Cc1ccc(Cn2cncc2CN2CCN(c3cccc(Cl)c3)C(=O)C2)cc1 [L-778123 FREE BASE] stands at 100

For reference, reported MIC for N#Cc1cc(Cn2cncc2CN2CCN(c3cccc(OC(F)(F)F)c3)C(=O)C2)ccc1F stands at 50

###

Tested on: Cryptococcus neoformans
Assay: Antifungal activity against Cryptococcus neoformans H99 assessed as decrease in cell viability by measuring metabolic activity incubated for 72 hrs by alamar blue staining based broth dilution method
Assay type: functional
parameter measured: MIC (µM)
Give the quantity in µM, number only.

Example entries and their recorded answers appear below.
compound smiles	MIC (µM)
N#Cc1cc(Cn2cncc2CN2CCN(c3cccc(OC(F)(F)F)c3)C(=O)C2)ccc1Oc1ccccc1	50
CCCCC[C@H]1CN(c2cccc(OC(F)(F)F)c2)C(=O)CN1Cc1cncn1Cc1ccc(Br)cc1	3
N#Cc1ccc(Cn2cncc2CN2CCN(c3cccc(OC(F)(F)F)c3)C(=O)C2)cc1	50

Recorded MIC for CCC[C@H]1CN(c2cccc(OC(F)(F)F)c2)C(=O)CN1Cc1cncn1Cc1ccc(Br)cc1 on Cryptococcus neoformans was 6

Recorded MIC for CCCC[C@H]1CN(c2cccc(OC(F)(F)F)c2)C(=O)CN1Cc1cncn1Cc1ccc(Cl)cc1 on Cryptococcus neoformans was 6

###

Entries and their MIC
System: Cryptococcus neoformans
Test: Antifungal activity against Cryptococcus neoformans H99 assessed as decrease in cell viability by measuring metabolic activity incubated for 72 hrs by alamar blue staining based broth dilution method
Type: functional
Give the quantity in µM, number only.

compound smiles	unit symbol	MIC
CCCC[C@H]1CN(c2cccc(C)c2C)C(=O)CN1Cc1cncn1Cc1ccc(C#N)cc1	µM	50

For reference, reported MIC for CCCC[C@H]1CN(c2cccc(OC(F)(F)F)c2)C(=O)CN1Cc1cncn1Cc1ccc(C#N)c(F)c1 stands at 50

For reference, reported MIC for CCCC[C@H]1CN(c2cccc(OC(F)(F)F)c2)C(=O)CN1Cc1cncn1Cc1ccc(F)cc1 stands at 12

For reference, reported MIC for N#Cc1ccc(Cn2cncc2CN2CCN(c3cccc(OC(F)(F)F)c3)C(=O)C2)cc1F stands at 50

For reference, reported MIC for CCCC[C@H]1CN(c2cccc(OC(F)(F)F)c2)C(=O)CN1Cc1cncn1Cc1ccc(C#N)cc1 stands at 12

###

System: Cryptococcus neoformans
Assay: Antifungal activity against Cryptococcus neoformans H99 assessed as decrease in cell viability by measuring metabolic activity incubated for 72 hrs by alamar blue staining based broth dilution method
Assay type: functional
Entries and their MIC
Give the quantity in µM, number only.

Example entries and their recorded answers appear below.
compound smiles	unit symbol	MIC
N#Cc1ccc(Cn2cncc2CN2CCN(c3cccc(OC(F)(F)F)c3)C(=O)C2)cc1Oc1ccccc1	µM	50
CCCC[C@H]1CN(c2cccc(OC(F)(F)F)c2)C(=O)CN1Cc1cncn1Cc1ccc(Oc2ccccc2)c(C#N)c1	µM	50
CCCC[C@H]1CN(c2cccc(OC(F)(F)F)c2)C(=O)CN1Cc1cncn1Cc1ccccc1	µM	25

For reference, reported MIC for CCCC[C@H]1CN(c2cccc(Cl)c2)C(=O)CN1Cc1cncn1Cc1ccc(Cl)cc1 stands at 25

For reference, reported MIC for CCCC[C@H]1CN(c2cccc(OC(F)(F)F)c2)C(=O)CN1Cc1cncn1Cc1ccc(Br)cc1 stands at 3

###

Experiment: Inhibition of Cryptococcus neoformans farnesyltransferase assessed as inhibition of farnesylation of dansyl-GCVVM peptide using fluorescent peptide dansyl-GCVVM and 1uM farnesyl diphosphate as substrate by fluorescence assay
parameter measured: pIC50
Note on pIC50: it is the negative log10 of concentration, concentration in mol/L.

Example entries and their recorded answers appear below.
compound smiles	pIC50
CCCC[C@H]1CN(c2cccc(Cl)c2)C(=O)CN1Cc1cncn1Cc1ccc(Br)cc1	5.96
CCCC[C@H]1CN(c2cccc(OC(F)(F)F)c2)C(=O)CN1Cc1cncn1Cc1ccc(C(F)(F)F)cc1	6.55
CCCC[C@H]1CN(c2cccc(OC(F)(F)F)c2)C(=O)CN1Cc1cncn1Cc1ccc(Br)cc1	6.72

For reference, reported pIC50 for CCCC[C@H]1CN(c2ccccc2)C(=O)CN1Cc1cncn1Cc1ccc(Br)cc1 stands at 6.04

For reference, reported pIC50 for N#Cc1ccc(Cn2cncc2CN2CCN(c3cccc(OC(F)(F)F)c3)C(=O)C2)cc1Oc1ccccc1 stands at 5.59

###

Assay: Inhibition of rat farnesyltransferase assessed as inhibition of farnesylation of dansyl-GCVVM peptide using fluorescent peptide dansyl-GCVVM and 1uM farnesyl diphosphate as substrate by fluorescence assay
parameter measured: pIC50
Note on pIC50: it is the negative log10 of concentration, concentration in mol/L.

For reference, reported pIC50 for N#Cc1ccc(Cn2cncc2CN2CCN(c3cccc(Cl)c3)C(=O)C2)cc1 [L-778123 FREE BASE] stands at 7.22

For reference, reported pIC50 for CCCC[C@H]1CN(c2cccc(OC(F)(F)F)c2)C(=O)CN1Cc1cncn1Cc1ccc(Br)cc1 stands at 8.70

###

Entries and their pIC50
Assay: Inhibition of Cryptococcus neoformans farnesyltransferase assessed as inhibition of farnesylation of dansyl-GCVVM peptide using fluorescent peptide dansyl-GCVVM and 1uM farnesyl diphosphate as substrate by fluorescence assay
Note on pIC50: it is the negative log10 of concentration, concentration in mol/L.

For reference, reported pIC50 for N#Cc1cc(Cn2cncc2CN2CCN(c3cccc(OC(F)(F)F)c3)C(=O)C2)ccc1Oc1ccccc1 stands at 6.49

For reference, reported pIC50 for CCCC[C@H]1CN(c2cccc(C)c2C)C(=O)CN1Cc1cncn1Cc1ccc(C#N)cc1 stands at 5.66

For reference, reported pIC50 for CCCC[C@H]1CN(c2cccc(OC(F)(F)F)c2)C(=O)CN1Cc1cncn1Cc1ccc(C#N)cc1 stands at 6.47

For reference, reported pIC50 for N#Cc1ccc(Cn2cncc2CN2CCN(c3cccc(OC(F)(F)F)c3)C(=O)C2)cc1 stands at 5.57

For reference, reported pIC50 for CCCC[C@H]1CN(c2cccc(OC(F)(F)F)c2)C(=O)CN1Cc1cncn1Cc1ccc(F)c(C#N)c1 stands at 6.74

For reference, reported pIC50 for CCCC[C@H]1CN(c2cccc(OC(F)(F)F)c2)C(=O)CN1Cc1cncn1Cc1ccc(Cl)cc1 stands at 6.59

For reference, reported pIC50 for CCCC[C@H]1CN(c2cccc(OC(F)(F)F)c2)C(=O)CN1Cc1cncn1Cc1ccc(C#N)c(Oc2ccccc2)c1 stands at 6.82

For reference, reported pIC50 for CCC[C@H]1CN(c2cccc(OC(F)(F)F)c2)C(=O)CN1Cc1cncn1Cc1ccc(Br)cc1 stands at 5.96

For reference, reported pIC50 for CCCC[C@H]1CN(c2cccc(OC(F)(F)F)c2)C(=O)CN1Cc1cncn1Cc1ccc(F)cc1 stands at 6.15

###

Test system: Cryptococcus neoformans
Assay: Antifungal activity against Cryptococcus neoformans H99 assessed as decrease in cell viability by measuring metabolic activity incubated for 72 hrs by alamar blue staining based broth dilution method
Format: functional
Entries and their MIC

Example entries and their recorded answers appear below.
compound smiles	assayed target	MIC
CCCC[C@H]1CN(c2cccc(OC(F)(F)F)c2)C(=O)CN1Cc1cncn1Cc1ccc(F)c(C#N)c1	Cryptococcus neoformans	50 µM
CCCC[C@H]1CN(c2cccc(OC(F)(F)F)c2)C(=O)CN1Cc1cncn1Cc1ccc(C#N)c(Oc2ccccc2)c1	Cryptococcus neoformans	50 µM
CCCC[C@H]1CN(c2cccc(Cl)c2)C(=O)CN1Cc1cncn1Cc1ccc(C#N)cc1	Cryptococcus neoformans	50 µM

For reference, reported MIC for CCCC[C@H]1CN(c2cccc(OC(F)(F)F)c2)C(=O)CN1Cc1cncn1Cc1cccc(C#N)c1 stands at 50 µM

###

Test: Inhibition of Cryptococcus neoformans farnesyltransferase assessed as inhibition of farnesylation of dansyl-GCVVM peptide using fluorescent peptide dansyl-GCVVM and 1uM farnesyl diphosphate as substrate by fluorescence assay
pIC50: −log10 of the molar value.
Use 7 as the dividing line for pIC50, with the line itself on the criterion met side and lower values as criterion not met.

Examples from the recorded data:
compound smiles	label class
CCCC[C@H]1CN(c2cccc(OC(F)(F)F)c2)C(=O)CN1Cc1cncn1Cc1ccc(Oc2ccccc2)c(C#N)c1	criterion not met
CCCC[C@H]1CN(c2cccc(OC(F)(F)F)c2)C(=O)CN1Cc1cncn1Cc1ccccc1	criterion not met
CCCC[C@H]1CN(c2cccc(OC(F)(F)F)c2)C(=O)CN1Cc1cncn1Cc1cccc(C#N)c1	criterion not met

Please tell me: is the molecule N#Cc1cc(Cn2cncc2CN2CCN(c3cccc(OC(F)(F)F)c3)C(=O)C2)ccc1F at or over 7 in terms of pIC50?
criterion not met

Please tell me: is the molecule CCCC[C@H]1CN(c2cccc(Cl)c2)C(=O)CN1Cc1cncn1Cc1ccc(Cl)cc1 at or over 7 in terms of pIC50?
criterion not met

Please tell me: is the molecule CCCC[C@H]1CN(c2cccc(OC(F)(F)F)c2)C(=O)CN1Cc1cncn1Cc1ccc(C#N)c(F)c1 at or over 7 in terms of pIC50?
criterion met
